Measured values drawn from the array DNA melting data of Ke et al. (doi:10.1101/2024.01.08.574731) for this set.

Assay: melting temperature; fluorescence melt of hairpins on a sequencing array, two-state fit, raised by 9.35 °C to match UV melts
Details: sodium 0.088 M
Field: Tm. Provide a value for each of the sequences that follow.
Output spec: scalar in °C, unitless text.

Reported Tm of GAATACGAAAGTATTC ((((((....)))))) : 55.5

Reported Tm of GATCCCGAAAGGGGAATC ((((((....)))..))) : 36.1

Reported Tm of GAGGGCGAAAGCCATCTC ((((((....)))..))) : 65.6

Reported Tm of GTGGCACCGAAAGGTCAC (((..(((....)))))) : 42.6

---

Assay: melting temperature; fluorescence melt of hairpins on a sequencing array, two-state fit, raised by 9.35 °C to match UV melts
Conditions: sodium 0.088 M
Experimental Readout: Tm (°C)
Output spec: scalar in °C, unitless text.

Reported Tm of GGGTCAGGAAACTGACTC (.(((((....))))).) : 51.8

Reported Tm of GCATACGAAAGTATCTGC ((((((....)))..))) : 37.9

Reported Tm of GTTGATGGAAACATCAAC (((((((....))))))) : 57.7

Reported Tm of GTTAACGAAAGTTATAAC ((((((....)))..))) : 26.4

Reported Tm of GCGGTGGCGAAAGCCCGC (((..(((....)))))) : 66.9

Reported Tm of GTGGTAGGAAACTACCAC (((((((....))))))) : 61.2

Reported Tm of GATCGGAAACCCGATC ((((((....)))))) : 53.9

Reported Tm of GAAGACGGAAACGTCTCC (.(((((....))))).) : 39.3

Reported Tm of GATCGTACTAACGATC ((((((....)))))) : 54.8

Reported Tm of GAAGAACCGAAAGGTTTC (((..(((....)))))) : 33

Reported Tm of GAGTGCGAAAGCATGCTC ((((((....)))..))) : 43.4

Reported Tm of GCCGCCGAAAGGCTAGGC ((((((....)))..))) : 60.5

Reported Tm of GACTGTGGAAACGTAGTC ((((..(....)..)))) : 34.8

Reported Tm of CGCGGAAGCCTCCGCG ((((((....)))))) : 68.6

---

Experiment: melting temperature; fluorescence melt of hairpins on a sequencing array, two-state fit, raised by 9.35 °C to match UV melts
Settings: sodium 0.088 M
Field: Tm. Provide a value for each of the sequences that follow.
Output spec: scalar in °C, unitless text.

Reported Tm of GGGGTCGAAAGACAACCC ((((((....)))..))) : 48.8

Reported Tm of GCTCCGCGAAAGCGATGC ((..(((....)))..)) : 40.8

Reported Tm of GAGAGGGGAAACTCTCTC (((((.(....).))))) : 49.4

Reported Tm of GCAGACGAAAGTCACTGC ((((((....)))..))) : 39.5

---

Experiment: folding enthalpy; higher = less favourable; fluorescence melt of hairpins on a sequencing array, two-state fit
Conditions: sodium 0.088 M
Please note: t applies when folding enthalpy is -30 kcal/mol or greater, and f applies otherwise.

Request: Can GATCCTCCGTAGGATC ((((((....)))))) be said to have folding enthalpy at or above -30 kcal/mol?
Result: t

Request: Can GCCGCGCGAAAGCGCAGC ((.((((....)))).)) be said to have folding enthalpy at or above -30 kcal/mol?
Result: t

Request: Can GATCGCCAGAGCGATC ((((((....)))))) be said to have folding enthalpy at or above -30 kcal/mol?
Result: f

Request: Can GAACACGAAAGTGAGTTC ((((((....)))..))) be said to have folding enthalpy at or above -30 kcal/mol?
Result: t

Request: Can GGCTTCGGAAACAAAGCC (((((.(....).))))) be said to have folding enthalpy at or above -30 kcal/mol?
Result: t

Request: Can CGCATCCGGAAACGGGCG (((..(((....)))))) be said to have folding enthalpy at or above -30 kcal/mol?
Result: t

Request: Can GTAATGGCGAAAGCCTAC (((..(((....)))))) be said to have folding enthalpy at or above -30 kcal/mol?
Result: t

Request: Can GCACGGGCGAAAGCCTGC (((..(((....)))))) be said to have folding enthalpy at or above -30 kcal/mol?
Result: t

Request: Can GAAGGTGGAAACGCCTTC (((((.(....).))))) be said to have folding enthalpy at or above -30 kcal/mol?
Result: f

Request: Can GATCCGCACCCGGATC ((((((....)))))) be said to have folding enthalpy at or above -30 kcal/mol?
Result: f

Request: Can GTGAGCTCGAAAGAGCAC (((..(((....)))))) be said to have folding enthalpy at or above -30 kcal/mol?
Result: t

Request: Can GGTAGCCGAAAGGCAACC (((.(((....))).))) be said to have folding enthalpy at or above -30 kcal/mol?
Result: t

Request: Can GCAGGCGGAAACACCCGC ((.((.(....).)).)) be said to have folding enthalpy at or above -30 kcal/mol?
Result: t

Request: Can GATAATGGAAACATTATC (((((((....))))))) be said to have folding enthalpy at or above -30 kcal/mol?
Result: f

Request: Can GATCTTCCCGAAGATC ((((((....)))))) be said to have folding enthalpy at or above -30 kcal/mol?
Result: f

Request: Can GGACACGAAAGTGCATCC ((((((....)))..))) be said to have folding enthalpy at or above -30 kcal/mol?
Result: t

Request: Can GAGGCGGCGAAAGCCCTC (((..(((....)))))) be said to have folding enthalpy at or above -30 kcal/mol?
Result: t

Request: Can GTGAACTCGAAAGAGCAC (((..(((....)))))) be said to have folding enthalpy at or above -30 kcal/mol?
Result: t

Request: Can GGGATTCCGAAAGGACCC (((..(((....)))))) be said to have folding enthalpy at or above -30 kcal/mol?
Result: t

Request: Can GATCGTAGATACGATC ((((((....)))))) be said to have folding enthalpy at or above -30 kcal/mol?
Result: f

Request: Can GGATCTGGAAACGGATCC (((((.(....).))))) be said to have folding enthalpy at or above -30 kcal/mol?
Result: f

Request: Can CATCGGAAACGATG (((((....))))) be said to have folding enthalpy at or above -30 kcal/mol?
Result: t

Request: Can GAGTTGAAAAACTC (((((....))))) be said to have folding enthalpy at or above -30 kcal/mol?
Result: t

Request: Can GGCGATGGAAACGTCGCC (((((.(....).))))) be said to have folding enthalpy at or above -30 kcal/mol?
Result: f

Request: Can GCACATCGAAAGATCTGC (((.(((....))).))) be said to have folding enthalpy at or above -30 kcal/mol?
Result: t

Request: Can GATACCGAAAGGTGAATC ((((((....)))..))) be said to have folding enthalpy at or above -30 kcal/mol?
Result: t

Request: Can GGCCGTCGAAAGACCGCC (((.(((....))).))) be said to have folding enthalpy at or above -30 kcal/mol?
Result: f

Request: Can GATCAACGCCTTGATC ((((((....)))))) be said to have folding enthalpy at or above -30 kcal/mol?
Result: t

Request: Can GAAACAGGAAACCGTTTC (((((.(....).))))) be said to have folding enthalpy at or above -30 kcal/mol?
Result: t
